tested on: MCF7 breast; assay: NCI-60 one-dose screen, 48 h (100 = growth as untreated, 0 = no growth, -100 = all killed); conditions: 10 µM unless noted
This is part of a sample that, as a whole, favours compounds with a hit. Of some 83,000 tested, about 20% had one in any assay.
Would you mind telling me the reported growth of each entry?
Give bare numbers, in %.

Solved cases (5 shown):
COc1ccc(/C(=C2\O[C@@H]([C@H](O)CO)[C@H]3OC(C)(C)O[C@@H]23)c2cc(OC)c(OC)c(OC)c2)cc1O
95.7
C[C@]12CC[C@@H]3c4ccc(O)c([N+](=O)[O-])c4CC[C@H]3[C@@H]1CC[C@@H]2NS(=O)(=O)c1ccc(C(F)(F)F)cc1
11.8
C=C(C)[C@H]1CC/C(C)=C/CC[C@]2(C)O[C@H]2CC/C(COC(C)=O)=C\C1=O
110
COc1ccc2c(c1)C(=O)c1c-2c(OCCN(C)C)nc2cc(OC)ccc12
-50
C[n+]1c2ccccc2c(Nc2ccc(N3CCCCC3)cc2)c2[nH]c3ccccc3c21
-74.6

Could you report growth for every entry in the following list?
1. CC1=NN(c2ccccc2Cl)C(=O)/C1=C\c1cn(S(=O)(=O)c2ccc(C)cc2)c2ccccc12
2. CCCCCCCCCCCCNc1ncnc2[nH]ncc12
3. O=C(CSc1nc2c(n1Nc1ccccc1)-c1ccccc1SC2)Nc1nc(-c2ccc(Cl)cc2)cs1
4. Nc1ccc(C2=NN(c3ccccc3)C(c3ccc(Cl)cc3)C2)cc1 (stereo not given)
5. Nc1nc(SCc2ccccc2Cl)c(-c2ccccc2)c(SCc2ccccc2Cl)n1
6. COc1cc(/C=C/c2nnc(-c3cc(-c4ccccc4)n[nH]3)o2)cc(OC)c1OC

Reply |
113
59
68.9
14.5
78
92

Dear colleague, could you please provide growth for the compounds listed below?
1. O=c1c(O)cccn1CCCNCCCN(CCCn1cccc(O)c1=O)CCCn1cccc(O)c1=O
2. Cc1ccccc1-c1cc(Cc2ccccc2O)c(=O)[nH]n1
3. COc1cc(/C=C/C(=O)c2c(-c3ccc(F)cc3)nc3sc(C)nn23)cc(OC)c1OC
4. O=C(O)c1ccc(NC(=O)c2ccc(Nc3ccnc(C(F)(F)F)c3)cc2)cc1

Reply |
1: 104; 2: 103; 3: 14.3; 4: 100

Record growth for all entries; do not skip any.
1. O=C1CC(=O)N(c2ccccc2)O1
2. O=c1[nH]c(Cl)nc2c1cnn2-c1ccccc1
3. Cc1nn(-c2ccccc2)c2nc3c(nc12)C(=O)CCC3
4. Cc1nc(N)[nH]c(=O)c1C
5. COc1ccc(-c2nn(-c3ccccc3)cc2/C=C2\SC(=S)N(CCc3ccc(O)cc3)C2=O)cc1

Reply |
1. 115
2. 84.3
3. 84.9
4. 95
5. 70.5

* * *

tested on: K-562 leukemia; test: NCI-60 one-dose screen, 48 h; details: 10 µM unless noted
Compounds without any hit were thinned out: in the full panel of roughly 83,000, 20% have a hit. Active and inactive are the calls of the source. Rule for the calls: active = growth percent below 10; inactive = the rest.
Outcomes you can answer with include only these: active, inactive

Previously resolved entries follow.
ClC1=C(Cl)C(Cl)=C(Cl)C1=Cc1ccc(Cl)cc1
active
C/C(=C\CCc1ccsc1)CC/C=C(\C)CCCN1CCN(CCO)CC1
active
C=C(C)[C@H]1CC/C(C)=C/CC[C@]2(C)O[C@H]2CC/C(C=O)=C\C1O (stereo partly drawn)
inactive
COc1ccc(-n2nnc(C(=O)O)c2-c2cc(OC)c(OC)c(OC)c2)cc1
inactive
O=NC1CC=CCC1c1ccccc1 (stereo not drawn)
inactive

Ask | Identify the outcome logged in this assay for the molecule shown: COc1ccc(-c2cc(Cc3cccs3)c(=O)n(Cn3ccc4ccccc43)n2)cc1
Reply | inactive

Ask | Assay result, entry Cc1ccc2c(c1)O/C(=C\c1ccc([N+](=O)[O-])o1)C2=O — outcome?
Reply | active

Ask | # fetch the recorded call for COc1ccc2c(c1)C(=O)c1c-2c(OCCN(C)C)nc2cc(OC)ccc12 here
Reply | active

Ask | Short answer needed: outcome of this test for O=C1C(Cl)=C(N=Nc2c(Cl)c(O)c3ccccc3c2O)C(=O)c2ccccc21 ?
Reply | inactive

Ask | Tell me the recorded outcome of this test for CSc1ncc2ncn(C3OC(CO)C(O)C3O)c2n1 (stereo not drawn) .
Reply | inactive
